// note: pKi values for Chymotrypsinogen A (Bos taurus) were reported in different studies
Keep it numeric: pKi is minus log10 of the concentration in mol/L.

Example cases with answers are listed next.
MOLECULE	pKi
O=C(N[C@@H](Cc1ccccc1)C(=O)C(F)(F)F)c1ccccc1	5.64
CC(C)[C@H](NC(=O)OC(C)(C)C)C(=O)N1CCC[C@H]1C(=O)NC(Cc1ccccc1)C(=O)C(F)(F)C(=O)Nc1ccc(C(=O)O)cc1 (some centres undefined)	6.70
CCC(C)(C)C(NC(=O)[C@@H]1CCCN1C(=O)[C@H](Cc1ccc2ccccc2c1)NC(=O)OCc1ccccc1)B1O[C@@H]2CC3CC(C3(C)C)[C@]2(C)O1 (some centres undefined)	5.84
CC(=O)NC(Cc1ccccc1)C(N)=S (centres undefined)	1.64
C=C1CC(c2ccc(NC(=N)N)cc2)C(NC(=O)c2ccccc2)C(=O)O1 (centres undefined)	6.34

### Prompt Please look at CC(C)[C@H](NC(=O)OC(C)(C)C)C(=O)N1CCC[C@H]1C(=O)NC(Cc1ccccc1)C(=O)C(F)(F)C(=O)NC(Cc1ccccc1)C(=O)O (some centres undefined) and tell me its recorded pKi on Chymotrypsinogen A (Bos taurus).
### Response 5.77

### Prompt Report value: pKi, system: Chymotrypsinogen A (Bos taurus), molecule: CC(C)C(NC(=O)[C@@H]1CCCN1C(=O)[C@@H](NC(=O)c1ccc(C(=O)NC(Cc2ccccc2)C(=O)C(F)(F)F)cc1)C(C)C)C(=O)C(F)(F)C(F)(F)F (some centres undefined)
### Response 5.92

### Prompt // output pKi; input COC(=O)c1ccc2oc(C(=O)C(Cc3ccccc3)NC(=O)Cn3c(-c4cccc(N)c4)ncc(N)c3=O)nc2c1 (centres undefined) ; system Chymotrypsinogen A (Bos taurus)
### Response 6.07

### Prompt State recorded pKi with Chymotrypsinogen A (Bos taurus), entry "CB(O)c1ccccc1" , no comment.
### Response 4.52

### Prompt State pKi on Chymotrypsinogen A (Bos taurus). Entry: CCNC(=O)c1ccc2oc(C(=O)C(Cc3ccccc3)NC(=O)Cn3c(-c4ccc(F)cc4)ncc(N)c3=O)nc2c1 (centres undefined)
### Response 7.49

### Prompt Look up Chymotrypsinogen A (Bos taurus) data: pKi of N=C(N)Nc1ccc(C2C/C(=C/I)OC(=O)C2NC(=O)c2ccccc2)cc1 (centres undefined) , then report it.
### Response 6.77

### Prompt Report value only: pKi, Chymotrypsinogen A (Bos taurus), CC(C)[C@H](NS(C)(=O)=O)C(=O)N1CCC[C@H]1C(=O)NC(Cc1ccccc1)C(=O)C(F)(F)C(=O)Nc1cccc(C(=O)O)c1 (some centres undefined)
### Response 6.68

### Prompt Look up and report measured pKi (Chymotrypsinogen A (Bos taurus)) for the following molecule: COC(=O)/C=C/C(Cc1ccccc1)NC(C)=O (centres undefined)
### Response 1.51

### Prompt Give pKi for this entry on Chymotrypsinogen A (Bos taurus): "CC(=O)C(=O)[C@H](Cc1ccccc1)NC(=O)[C@@H](NC(=O)OCc1ccccc1)C(C)C"
### Response 6.70

### Prompt Give pKi for O=C(N[C@@H](Cc1ccc(OCC2CO2)cc1)C(=O)Nc1ccc([N+](=O)[O-])cc1)c1ccccc1 (some centres undefined) tested on Chymotrypsinogen A (Bos taurus).
### Response 4.18

### Prompt Fetch value of pKi on Chymotrypsinogen A (Bos taurus) for "O=C[C@H](Cc1ccccc1)NC(=O)c1ccccc1" .
### Response 4.19

### Prompt Give pKi only, for "O=C(Cn1ccc(Nc2ccccc2)cc1=O)Nc1ccccc1C(=O)c1ccccc1" , using Chymotrypsinogen A (Bos taurus) data.
### Response 5.18

### Prompt Please indicate recorded pKi of COC(=O)c1ccc2oc(C(=O)C(Cc3ccccc3)NC(=O)Cn3c(-c4cccc(F)c4)ncc(N)c3=O)nc2c1 (centres undefined) measured with Chymotrypsinogen A (Bos taurus).
### Response 5.75
